Provenance of the data: patent US11033539B2

target: human M1 receptor (Homo sapiens (Human))
Sequence (P11229 whole entry): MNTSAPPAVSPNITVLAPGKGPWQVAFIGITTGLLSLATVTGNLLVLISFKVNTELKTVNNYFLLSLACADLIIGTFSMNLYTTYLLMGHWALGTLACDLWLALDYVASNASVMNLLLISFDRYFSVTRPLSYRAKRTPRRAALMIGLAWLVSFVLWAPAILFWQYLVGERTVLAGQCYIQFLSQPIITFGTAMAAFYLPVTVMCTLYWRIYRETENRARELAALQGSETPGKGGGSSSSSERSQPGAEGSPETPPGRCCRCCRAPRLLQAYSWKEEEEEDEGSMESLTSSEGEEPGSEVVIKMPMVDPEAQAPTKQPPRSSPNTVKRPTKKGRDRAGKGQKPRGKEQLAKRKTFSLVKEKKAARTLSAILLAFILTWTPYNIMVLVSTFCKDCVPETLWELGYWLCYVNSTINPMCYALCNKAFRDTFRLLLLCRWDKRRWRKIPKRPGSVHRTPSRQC
procedureText: Radioligand (tritiated N-methylscopolamine) binding assay, M1
runParameters: CHO cell membranes expressing human M1; 1.5 nM tritiated N-methylscopolamine; 90 min, 37° C.; read-out: Ki against M1 receptor (Table 21, M1)
Could you please report measured Ki for the items listed next?

Examples from the recorded data:
>>> measured("COc1cc(N2CCC(C(=O)NCCC3CCN(Cc4ccccc4)CC3)CC2)ccc1OC(F)(F)F")
"100 to 1000 nM"
>>> measured("Cc1cc(N2CCC(C(=O)NCCC3CCN(Cc4ccccc4)CC3)CC2)ccc1OC(F)(F)F")
"100 to 1000 nM"

Batch request: Ki per item, same order as input.
1. C[C@@H]1CN(c2ccc(F)c(C(F)F)c2)CCN1C(=O)NCCC1CCN(Cc2ccccc2)CC1
2. O=C(NCCC1CCN(Cc2ccccc2)CC1)C1CCN(c2cc(F)cc(F)c2)CC1
3. C[C@@H]1CN(c2ncc(C#N)cn2)C[C@H](C)N1C(=O)NCCC1CCN(Cc2ccc(O)cc2)CC1
4. Cc1c(C(=O)NCCC2CCN(Cc3ccccc3)CC2)cnc2cc(-c3cc(F)cc(F)c3)nn12
5. C[C@@H]1CN(c2ncc(C#N)c(N)n2)CCN1C(=O)NCCC1CCN(Cc2ccccc2)CC1
6. Cc1c(C(=O)NCCC2CCN(Cc3ccccc3)CC2)cnc2cc(-c3cccc(C(F)(F)F)c3)nn12

Found:
100 to 1000 nM
> 1000 nM
> 1000 nM
> 1000 nM
> 1000 nM
> 1000 nM

----------
target: UniProt:P08912
Sequence (P08912 whole entry): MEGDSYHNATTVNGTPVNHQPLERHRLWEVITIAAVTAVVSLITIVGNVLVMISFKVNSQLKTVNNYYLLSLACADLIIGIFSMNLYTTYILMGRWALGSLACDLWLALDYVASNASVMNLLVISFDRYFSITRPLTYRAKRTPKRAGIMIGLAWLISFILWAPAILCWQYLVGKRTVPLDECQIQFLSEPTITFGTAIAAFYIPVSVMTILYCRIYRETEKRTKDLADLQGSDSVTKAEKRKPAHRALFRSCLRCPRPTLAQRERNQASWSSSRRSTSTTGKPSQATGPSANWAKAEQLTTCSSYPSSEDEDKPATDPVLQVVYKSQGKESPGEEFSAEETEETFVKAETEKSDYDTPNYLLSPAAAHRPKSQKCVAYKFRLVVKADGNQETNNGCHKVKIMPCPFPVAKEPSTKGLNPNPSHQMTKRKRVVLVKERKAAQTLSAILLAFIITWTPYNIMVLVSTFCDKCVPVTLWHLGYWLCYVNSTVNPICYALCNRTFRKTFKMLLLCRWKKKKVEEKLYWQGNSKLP
procedureText: Radioligand (tritiated N-methylscopolamine) binding assay, M5
runParameters: CHO cell membranes expressing human M5; 1.5 nM tritiated N-methylscopolamine; 90 min, 37° C.; read-out: Ki against M5 receptor (Table 21, M5)
observedProperty: Ki

Examples from the recorded data:
>>> measured("C[C@@H]1CN(c2nccc(C#N)n2)C[C@H](C)N1C(=O)NCCC1CCN(Cc2ccccc2)CC1")
"> 1000 nM"
>>> measured("C[C@@H]1CN(c2nc(Cl)cc(C#N)n2)C[C@H](C)N1C(=O)NCCC1CCN(Cc2ccccc2)CC1")
"> 1000 nM"

Batch request: Ki per item, same order as input.
1. COc1nc(N2C[C@@H](C)N(C(=O)NCCC3CCN(Cc4ccccc4)CC3)[C@@H](C)C2)ncc1C#N
2. C[C@@H]1CN(c2cnc(C(F)(F)F)nc2)C[C@@H](C)N1C(=O)NCCC1CCN(Cc2ccccc2)CC1

Found:
["> 1000 nM", "100 to 1000 nM"]

----------
target: human M4 receptor (Homo sapiens (Human), UniProt P08173)
Sequence (P08173 whole entry): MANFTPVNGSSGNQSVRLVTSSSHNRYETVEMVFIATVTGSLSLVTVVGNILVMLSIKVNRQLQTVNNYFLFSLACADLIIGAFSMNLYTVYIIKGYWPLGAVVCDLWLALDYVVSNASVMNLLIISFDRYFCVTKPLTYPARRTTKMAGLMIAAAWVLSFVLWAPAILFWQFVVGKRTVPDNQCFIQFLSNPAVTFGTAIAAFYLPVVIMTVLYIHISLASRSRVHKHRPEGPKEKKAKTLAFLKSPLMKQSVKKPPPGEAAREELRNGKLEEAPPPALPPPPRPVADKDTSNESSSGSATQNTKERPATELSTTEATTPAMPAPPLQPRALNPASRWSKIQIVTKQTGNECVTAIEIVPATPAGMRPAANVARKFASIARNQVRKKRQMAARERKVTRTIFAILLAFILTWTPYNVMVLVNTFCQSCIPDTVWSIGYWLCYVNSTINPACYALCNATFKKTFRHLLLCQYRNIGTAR
procedureText: Radioligand (tritiated N-methylscopolamine) binding assay, M4
runParameters: Ki against the M4 receptor; membranes from CHO cells expressing human M4; tritiated N-methylscopolamine 1.5 nM; read-out: Ki
pKi: −log10 of the molar value.
observedProperty: pKi

>>> measured("COc1cccc(N2CCN(C(=O)NCCC3CCN(Cc4ccccc4)CC3)[C@H](C)C2)n1 [4-51]")
"6.00 to 7.00"
>>> measured("C[C@@H]1CN(c2ncc(C#N)cn2)C[C@H](C)N1C(=O)NCCC1CCN(Cc2ccccc2)CC1 [5-20]")
"> 8.00"
>>> measured("C[C@@H]1CN(c2ncc(C(F)(F)F)cn2)CCN1C(=O)NCCC1CCN(Cc2cccnc2)CC1 [6-32]")
"7.00 to 8.00"

Batch request: pKi per item, same order as input.
1. COC(=O)c1cc(Cl)nc(N2CCN(C(=O)NCCC3CCN(Cc4ccccc4)CC3)[C@H](C)C2)n1 [5-11]
2. O=C(NCCC1CCN(Cc2ccccc2)CC1)Nc1ccc(Oc2ccccc2)cc1 [8-41]
3. COc1cccc(CN2CCC(CCNC(=O)c3ccc(OCc4ccccc4)cc3)CC2)c1O [11-9]

Found:
["6.00 to 7.00", "6.00 to 7.00", "6.00 to 7.00"]
